# TARGET_SYSTEM: trypsin (Bos taurus, UniProt P00760)
# Sequence (P00760 24-246): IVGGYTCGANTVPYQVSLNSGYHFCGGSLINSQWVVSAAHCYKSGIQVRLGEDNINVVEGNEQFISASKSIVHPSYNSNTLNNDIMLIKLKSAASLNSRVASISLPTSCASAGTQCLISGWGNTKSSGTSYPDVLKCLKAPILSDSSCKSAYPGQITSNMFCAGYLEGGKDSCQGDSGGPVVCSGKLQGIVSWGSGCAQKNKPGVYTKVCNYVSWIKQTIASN
Listed here: items and their measured IC50.
MEASUREMENT_KIND: IC50

COMPOUND	REPORTED
CC(=O)N[C@@H](CC(=O)O)C(=O)N[C@@H](CCC(=O)O)C(=O)N[C@H](C(=O)N[C@H](C=O)CC(=O)O)C(C)C [DEVD, reference compound]	> 100 µM
C/C1=C2/[N-]C([C@H](CC(N)=O)[C@@]2(C)CCC(=O)NCC(C)O)[C@]2(C)N=C(/C(C)=C3N=C(/C=C4N=C1[C@@H](CCC(N)=O)C\4(C)C)[C@@H](CCC(N)=O)[C@]\3(C)CC(N)=O)[C@@H](CCC(N)=O)[C@]2(C)CC(N)=O.[C-]#N.[C-]#N.[Co] (some centres unmarked) [dicyanocobinamide]	> 5 µM

====

# TARGET_SYSTEM: cathepsin B (Homo sapiens)
Listed here: items and their measured IC50.
MEASUREMENT_KIND: IC50 (nM)

COMPOUND	MEASUREMENT_KIND	REPORTED
CC(=O)N[C@@H](CC(=O)O)C(=O)N[C@@H](CCC(=O)O)C(=O)N[C@H](C(=O)N[C@H](C=O)CC(=O)O)C(C)C [DEVD, reference compound]	IC50	672
C/C1=C2/[N-]C([C@H](CC(N)=O)[C@@]2(C)CCC(=O)NCC(C)O)[C@]2(C)N=C(/C(C)=C3N=C(/C=C4N=C1[C@@H](CCC(N)=O)C\4(C)C)[C@@H](CCC(N)=O)[C@]\3(C)CC(N)=O)[C@@H](CCC(N)=O)[C@]2(C)CC(N)=O.[C-]#N.[C-]#N.[Co] (some centres unmarked) [dicyanocobinamide]	IC50	102

The origin of these recorded values is patent US20090149436A1.
